# Tested on: PC12 cells
# PROTOCOL_SUMMARY: Viability of PC12 cells (MTT assay)
# Format: cell-based, rat
# EXPERIMENTAL_SETUP: cell viability < 80%; screening from 1 to 40 μM, 24 h

COMPOUND_STRUCTURE | STUDY_SYSTEM | Toxic Concentration
COc1cc(/C=C/C(=O)c2ccc(OC)c(OC)c2)ccc1O | PC12 cells | >10 µM
COc1cc(C(=O)/C=C/c2cc(OC)c(OC)c(-c3cc(/C=C/C(=O)c4ccc(O)c(OC)c4)cc(OC)c3OC)c2)ccc1O | PC12 cells | >5 µM
COc1cc(C=CC(C)=O)ccc1O | PC12 cells | 40 µM
COc1cc(/C=C/C(=O)c2cc(OC)c(OC)c(-c3cc(C(=O)/C=C/c4ccc(O)c(OC)c4)cc(OC)c3OC)c2)ccc1O | PC12 cells | >5 µM
CCOC(=O)/C=C/c1cc(OC)c(O)c(-c2cc(/C=C/C(=O)OCC)cc(OC)c2O)c1 | PC12 cells | none
